Tested on: HeLa (cervical cancer cell line)
assay comment: MTT cell viability assay, HeLa
Type: cell-based
assay setup: Homo sapiens, 48 h, read-out: Antiproliferative Activity IC50 ± SEM, HeLa
test readout: IC50

COc1cc(/C=C/C(=O)NCCCCCCCCCCNC(=O)/C=C/c2cc(OC)c(OC)c(OC)c2)cc(OC)c1OC [Compound 29e] : > 20 µM
COc1ccc(/C=C/C(=O)NCCCCCCCCCCNC(=O)/C=C/c2ccc(OC)c(OC)c2)cc1OC [Compound 27e] : > 20 µM
Cc1nc(C)c(C(=O)NCCCCNC(=O)c2nc(C)c(C)nc2C)nc1C [Compound 8b] : > 100 µM
Cc1nc(C)c(CN(CCCCCCCCN(Cc2nc(C)c(C)nc2C)Cc2nc(C)c(C)nc2C)Cc2nc(C)c(C)nc2C)nc1C [Compound 6e] : 62.7 µM
Cc1nc(C)c(CN(CCCCCCCCCCN(Cc2nc(C)c(C)nc2C)Cc2nc(C)c(C)nc2C)Cc2nc(C)c(C)nc2C)nc1C [Compound 6f] : 10.2 µM

Query: Report IC50 for O=C(NCCCCCCCCCCNC(=O)c1ccncc1)c1ccncc1 [Compound 13e, N,N′-(Decane-1,10-Diyl)Diisonicotinamide] please.
Response: > 100 µM

Query: Same read-out for O=C(/C=C/c1ccccc1)OCCCCCCCCCCOC(=O)/C=C/c1ccccc1 [Compound 9h] ?
Response: > 20 µM

Query: Same read-out for O=C(NCCCCCCCCCCNC(=O)c1ccc2nc[nH]c2c1)c1ccc2nc[nH]c2c1 [Compound 19e] ?
Response: > 20 µM

Query: Same read-out for O=C(NCCCCCCCCCCNC(=O)c1ccccn1)c1ccccn1 [Compound 15e, N,N′-(Decane-1,10-Diyl)Dipicolinamide] ?
Response: 37.7 µM

Query: Same read-out for COc1ccc(C(=O)NCCCCCCCCCCNC(=O)c2ccc(OC)c(OC)c2OC)c(OC)c1OC [Compound 35e] ?
Response: > 20 µM

Query: Same read-out for Cc1nc(C)c(CN(CCCN(Cc2nc(C)c(C)nc2C)Cc2nc(C)c(C)nc2C)Cc2nc(C)c(C)nc2C)nc1C [Compound 6b] ?
Response: > 100 µM

###

Listed below: IC50 values for each entry.
Tested on: MCF 10A (normal mammary epithelial cell)
assay comment: MTT cell viability assay, MCF 10A
Type: cell-based
assay setup: Homo sapiens, 48 h, normal cells, read-out: Antiproliferative Activity IC50 ± SEM, MCF 10A

# count of solved cases: 2
Cc1nc(C)c(CN(CCCCN(Cc2nc(C)c(C)nc2C)Cc2nc(C)c(C)nc2C)Cc2nc(C)c(C)nc2C)nc1C [Compound 6c] : > 100 µM
Cc1nc(C)c(C(=O)NCCCNC(=O)c2nc(C)c(C)nc2C)nc1C [Compound 8a] : > 100 µM

Consider the record given below.
Query: Report IC50 for Nc1cccc(C(=O)NCCCCCCCCCCNC(=O)c2cccc(N)c2)c1 [Compound 32e] please.
Response: > 20 µM
